assay: Selectivity ratio, ratio of inhibition of BChE (unknown origin) to inhibition of AChE (unknown origin)
MEASURED_PROPERTY: Ratio IC50

Here is how some molecules turned out for Ratio IC50.
RECORD_SMILES: COc1ccc2c(c1)C[C@@H]1c3c(cc4c(c3-2)OCO4)CCN1C
Ratio IC50: 1.4
//
RECORD_SMILES: COc1cc2c(cc1OC)[C@@H]1Cc3ccc(O)c(OC)c3CN1CC2
Ratio IC50: 0.6
//
RECORD_SMILES: COc1ccc2c(c1)C(=O)c1nccc3cc4c(c-2c13)OCO4
Ratio IC50: > 27.5

Quick request: Ratio IC50 for each listed item, please.
1. COc1cc2c(cc1O)CC[n+]1cc3c(OC)c(O)ccc3cc1-2
2. COc1cc2c(c(O)c1OC)CCN1Cc3c(ccc(O)c3OC)C[C@@H]21
3. O=C1C(=O)N2CCc3cc4c(c5c3c2c1c1ccccc15)OCO4
4. COC1=CC(=O)c2c(cc3c4c(cc5c(c24)OCO5)CCN3C)C1=O
5. COc1ccc(C[C@H]2c3c(ccc(OC)c3O)CCN2C)cc1

**A:**
[6.7, "> 3.4", 0.3, 0.4, 1.3]

Quick request: Ratio IC50 for each listed item, please.
1. COc1cc2c(cc1O)[C@@H]1Cc3ccc(OC)c(O)c3CN1CC2
2. COc1cc2c(c(O)c1OC)CC[N@+]1(C)Cc3c(ccc(O)c3OC)C[C@@H]21
3. COc1cc(O)c2c(c1)C[C@H]1NCCc3c(OC)c4c(c-2c31)OCO4
4. COc1ccc2c(c1)C[C@H]1NCCc3cc4c(c-2c31)OCO4
5. COc1cc2c(c(O)c1OC)CC[n+]1cc3c(OC)c(O)ccc3cc1-2
6. COc1ccc2c(c1OC)c1c3c4c(cc5c(c42)OCO5)CCN3C(=O)C1=O
7. COc1cc(O)c2c(c1)C[C@@H]1c3c(cc4c(c3-2)OCO4)CCN1C

**A:**
1. 0.4
2. > 2.3
3. 0.9
4. 0.5
5. > 18.3
6. 7.6
7. 1.1

* * *

molecular target: Amyloid-beta precursor protein (Homo sapiens, UniProt P05067); assay: Inhibition of amyloid beta 42 (unknown origin) aggregation at 50 uM incubated for 24 hrs by ThT assay relative to control
Sequence (P05067 whole entry): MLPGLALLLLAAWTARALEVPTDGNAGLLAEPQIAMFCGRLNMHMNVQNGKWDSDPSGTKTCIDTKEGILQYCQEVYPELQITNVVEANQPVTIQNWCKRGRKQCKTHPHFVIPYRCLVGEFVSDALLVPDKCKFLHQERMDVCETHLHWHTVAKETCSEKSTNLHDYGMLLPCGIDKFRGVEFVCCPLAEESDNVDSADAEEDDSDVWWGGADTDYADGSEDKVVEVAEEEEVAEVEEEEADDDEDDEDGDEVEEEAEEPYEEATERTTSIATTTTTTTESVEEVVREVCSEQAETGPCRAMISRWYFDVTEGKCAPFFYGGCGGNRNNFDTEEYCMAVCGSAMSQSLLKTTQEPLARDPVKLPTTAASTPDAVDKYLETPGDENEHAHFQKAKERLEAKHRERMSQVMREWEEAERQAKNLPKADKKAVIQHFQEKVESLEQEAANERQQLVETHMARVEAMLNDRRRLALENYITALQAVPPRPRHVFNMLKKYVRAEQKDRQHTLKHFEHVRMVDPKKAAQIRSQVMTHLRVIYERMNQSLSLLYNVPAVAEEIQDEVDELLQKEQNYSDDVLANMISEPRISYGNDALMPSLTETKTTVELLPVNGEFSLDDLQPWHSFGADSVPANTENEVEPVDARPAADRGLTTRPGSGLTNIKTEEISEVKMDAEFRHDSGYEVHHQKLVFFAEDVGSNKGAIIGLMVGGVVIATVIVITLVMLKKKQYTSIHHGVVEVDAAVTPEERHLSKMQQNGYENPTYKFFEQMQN
Activity calls are given as the source filed them. No cut-off for these calls is given here.
MEASURED_PROPERTY: inhibition

Here is how some molecules turned out for inhibition.
RECORD_SMILES: COc1ccc2c(c1)C(=O)c1nccc3cc4c(c-2c13)OCO4
inhibition: 86.2%

RECORD_SMILES: COc1cc2c(c(O)c1OC)CCN1Cc3c(ccc(O)c3OC)C[C@@H]21
inhibition: inactive

RECORD_SMILES: COC1=CC(=O)c2c(cc3c4c(cc5c(c24)OCO5)CCN3C)C1=O
inhibition: 30.7%

RECORD_SMILES: COc1ccc2c(c1OC)c1c3c4c(cc5c(c42)OCO5)CCN3C(=O)C1=O
inhibition: 10.9%

RECORD_SMILES: O=C1C(=O)N2CCc3cc4c(c5c3c2c1c1ccccc15)OCO4
inhibition: 47.6%

RECORD_SMILES: COc1cc2c(c(O)c1OC)CC[N@+]1(C)Cc3c(ccc(O)c3OC)C[C@@H]21
inhibition: inactive

**Q:** Consider the molecule shown here: COc1cc(O)c2c(c1)C[C@H]1NCCc3c(OC)c4c(c-2c31)OCO4 What is its recorded inhibition?
**A:** 44.5%

* * *

molecular target: Cholinesterase (Homo sapiens)
Sequence (P06276 whole entry): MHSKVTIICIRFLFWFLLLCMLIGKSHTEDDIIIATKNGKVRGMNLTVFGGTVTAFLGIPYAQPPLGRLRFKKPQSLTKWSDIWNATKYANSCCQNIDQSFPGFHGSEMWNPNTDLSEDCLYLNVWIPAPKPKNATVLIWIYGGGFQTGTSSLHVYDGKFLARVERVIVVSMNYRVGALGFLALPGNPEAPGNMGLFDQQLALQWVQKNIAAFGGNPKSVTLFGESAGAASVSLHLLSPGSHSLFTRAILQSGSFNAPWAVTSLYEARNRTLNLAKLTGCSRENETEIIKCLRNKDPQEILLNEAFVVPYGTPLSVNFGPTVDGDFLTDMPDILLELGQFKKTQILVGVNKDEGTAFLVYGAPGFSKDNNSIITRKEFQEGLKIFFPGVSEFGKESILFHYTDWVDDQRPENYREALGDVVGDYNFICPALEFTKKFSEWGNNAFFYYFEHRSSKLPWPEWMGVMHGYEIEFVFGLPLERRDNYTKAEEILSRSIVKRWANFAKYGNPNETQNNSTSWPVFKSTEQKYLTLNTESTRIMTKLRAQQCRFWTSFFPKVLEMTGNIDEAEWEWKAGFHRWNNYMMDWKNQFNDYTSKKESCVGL
pIC50: −log10 of the molar value.
Field: pIC50. Provide a value for each of the compounds that follow.

Here is how some compounds turned out for pIC50.
RECORD_SMILES: COc1cc(O)c2c(c1)C[C@@H]1c3c(cc4c(c3-2)OCO4)CC[N@+]1(C)[O-]
ASSAYED_TARGET: Cholinesterase (Homo sapiens)
pIC50: < 3.52
//
RECORD_SMILES: COc1cc(O)c2c(c1)C[C@H]1NCCc3cc4c(c-2c31)OCO4
ASSAYED_TARGET: Cholinesterase (Homo sapiens)
pIC50: < 3.52
//
RECORD_SMILES: COc1cc2c(c(O)c1OC)CC[N@+]1(C)Cc3c(ccc(O)c3OC)C[C@@H]21
ASSAYED_TARGET: Cholinesterase (Homo sapiens)
pIC50: < 3.52

We next turn to a different compound, shown below.
**Q:** Consider the compound shown here: COc1cc(O)c2c(c1)C[C@@H]1c3c(cc4c(c3-2)OCO4)CC[N@@+]1(C)[O-] What is its recorded pIC50?
**A:** < 3.52

* * *

IC50 data for Acetylcholinesterase (Homo sapiens, UniProt P22303) follow.

Here is how some compounds turned out for IC50.
RECORD_SMILES: COC1=C(CC(=O)CCc2ccccc2)C(=O)O[C@@H]1O
RESULT: > 300 µM
//
RECORD_SMILES: COc1cc(O)c2c(c1)C[C@@H]1c3c(cc4c(c3-2)OCO4)CC[N@@+]1(C)[O-]
RESULT: > 300 µM
//
RECORD_SMILES: COc1cc(O)c2c(c1)C[C@H]1NCCc3cc4c(c-2c31)OCO4
RESULT: > 300 µM
//
RECORD_SMILES: COc1cc(O)cc2c1-c1c3c(cc4c1[C@@H](C2)N(C)CC4)OCO3
RESULT: > 300 µM

We next turn to a different compound, shown below.
**Q:** Consider the compound shown here: COc1cc(O)c2c(c1)C[C@@H]1c3c(cc4c(c3-2)OCO4)CC[N@+]1(C)[O-] What is its recorded IC50?
**A:** > 300 µM
